Cited source for all entries: PubChem BioAssay

Experiment: RPL19A-GFP modulators, yeast TOR pathway, confirmation, cell-based, S. cerevisiae, flow cytometry, cherry picks, mother/daughter gates (AID 2270)
Details: S. cerevisiae RPL19A-GFP strain, 3 h, at 10 µM, active compounds read low, 100 = same GFP as DMSO wells
measured-endpoint: GFP response vs DMSO (%)
Provide the reading as a plain figure in %.

The cases that follow already have their GFP response vs DMSO on record.
{"chem-smiles": "Cc1ccc(-c2nc3ccccn3c2NC(=O)c2ccco2)cc1", "measured-endpoint": "GFP response vs DMSO", "u": "%", "observed-value": 94.9}
{"chem-smiles": "O=C(Nc1cc(Sc2ccccn2)cc([N+](=O)[O-])c1)c1cccc(Cl)c1", "measured-endpoint": "GFP response vs DMSO", "u": "%", "observed-value": 96.9}
{"chem-smiles": "COc1cc(NC(=O)c2ccccc2[N+](=O)[O-])ccc1NC(=O)c1cc2ccccc2o1", "measured-endpoint": "GFP response vs DMSO", "u": "%", "observed-value": 101}
{"chem-smiles": "O=C(Nc1cccc(O)c1)c1ccc(Br)cc1", "measured-endpoint": "GFP response vs DMSO", "u": "%", "observed-value": 96}
{"chem-smiles": "COCCNC(=O)c1ccccc1-c1nc(-c2ccccc2Cl)no1", "measured-endpoint": "GFP response vs DMSO", "u": "%", "observed-value": 98}

[Q] Which GFP response vs DMSO is listed for `CCN(CC)Cc1c(O)ccc2c(C)c(CC(=O)OC)c(=O)oc12` ?
[A] 103
